# system-tested: human IL-21R expressed on cells (human, UniProt Q9HBE5 20-538)
# Sequence (Q9HBE5 20-538 limits assumed): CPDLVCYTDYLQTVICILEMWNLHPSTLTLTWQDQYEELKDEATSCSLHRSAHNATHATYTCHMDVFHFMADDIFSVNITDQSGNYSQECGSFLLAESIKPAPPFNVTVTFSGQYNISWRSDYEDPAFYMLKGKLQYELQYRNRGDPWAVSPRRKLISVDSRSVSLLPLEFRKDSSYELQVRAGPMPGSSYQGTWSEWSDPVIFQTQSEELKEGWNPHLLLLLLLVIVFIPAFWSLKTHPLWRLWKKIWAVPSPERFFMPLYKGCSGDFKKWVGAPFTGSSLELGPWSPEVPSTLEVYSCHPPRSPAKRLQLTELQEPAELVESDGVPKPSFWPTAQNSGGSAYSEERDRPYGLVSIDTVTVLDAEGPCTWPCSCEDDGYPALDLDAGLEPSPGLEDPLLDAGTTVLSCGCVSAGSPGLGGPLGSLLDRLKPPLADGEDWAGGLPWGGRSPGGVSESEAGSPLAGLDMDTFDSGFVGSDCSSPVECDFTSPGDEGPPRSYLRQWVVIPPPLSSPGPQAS
# assay-method-text: cell-based or functional assay
Reported Human IL-21R-BaF3 Proliferation IC50 is given for each of the following binders.
experimental-endpoint: Human IL-21R-BaF3 Proliferation IC50 (nM)

binder | measure-unit | readout-value
AbM (antibody, IgG1, V domains shown, As for AbA: IgG1/lambda, CDR3 graft, residue limits derived; also called VH6/VL13) VH: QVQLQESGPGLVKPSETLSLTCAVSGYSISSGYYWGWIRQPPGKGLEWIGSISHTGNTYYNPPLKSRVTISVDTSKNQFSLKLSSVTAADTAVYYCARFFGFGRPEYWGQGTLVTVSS VL: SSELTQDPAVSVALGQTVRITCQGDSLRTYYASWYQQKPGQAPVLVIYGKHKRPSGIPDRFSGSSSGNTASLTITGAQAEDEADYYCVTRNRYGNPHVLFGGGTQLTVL | nM | 1.08
AbG (antibody, IgG1, V domains shown, As for AbA: IgG1/lambda, CDR3 graft, residue limits derived; also called VHP/VL18) VH: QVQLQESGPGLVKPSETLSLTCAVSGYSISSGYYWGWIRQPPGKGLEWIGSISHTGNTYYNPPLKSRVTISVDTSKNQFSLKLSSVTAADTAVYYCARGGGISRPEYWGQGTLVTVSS VL: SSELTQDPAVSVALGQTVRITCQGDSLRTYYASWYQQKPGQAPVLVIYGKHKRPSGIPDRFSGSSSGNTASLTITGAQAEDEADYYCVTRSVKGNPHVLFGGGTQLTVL | nM | 0.77
AbH (antibody, IgG1, V domains shown, As for AbA: IgG1/lambda, CDR3 graft, residue limits derived; also called VHP/VL19) VH: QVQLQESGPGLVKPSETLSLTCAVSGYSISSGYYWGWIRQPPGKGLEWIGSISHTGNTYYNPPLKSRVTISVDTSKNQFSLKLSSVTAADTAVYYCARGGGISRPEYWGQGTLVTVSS VL: SSELTQDPAVSVALGQTVRITCQGDSLRTYYASWYQQKPGQAPVLVIYGKHKRPSGIPDRFSGSSSGNTASLTITGAQAEDEADYYCVARAVRGNPHVLFGGGTQLTVL | nM | 0.94
AbI (antibody, IgG1, V domains shown, As for AbA: IgG1/lambda, CDR3 graft, residue limits derived; also called VHP/VL24) VH: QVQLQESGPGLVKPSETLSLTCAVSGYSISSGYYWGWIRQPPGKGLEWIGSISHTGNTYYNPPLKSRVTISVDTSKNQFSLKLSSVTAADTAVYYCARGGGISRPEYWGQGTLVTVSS VL: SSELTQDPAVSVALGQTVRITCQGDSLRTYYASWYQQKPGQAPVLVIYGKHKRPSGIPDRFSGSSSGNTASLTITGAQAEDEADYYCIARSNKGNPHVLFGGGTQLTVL | nM | 1
